- TARGET SYSTEM: K289M pol β (Homo sapiens, UniProt P06746, K289M)
- Construct: made in house
- RUN DESCRIPTION: Single turnover polymerase activity (rapid-quench), K289M pol β
- Assay type: biochemical
- RUN PARAMETERS: apparent dNTP dissociation constant; APC in Control sequence, templating base C; listed as O
OUTCOME MEASURE: pKd
Quick note: pKd values are minus log10 of concentrations in mol/L.

Briefly, pKd measured for Nc1nc2c(ncn2[C@H]2C[C@H](O)[C@@H](COP(=O)(O)OP(=O)(O)OP(=O)(O)O)O2)c(=O)[nH]1 : 5.82

====

- TARGET SYSTEM: WT pol β (Homo sapiens, UniProt P06746)
- Construct: made in house
- RUN DESCRIPTION: Single turnover polymerase activity (rapid-quench), WT pol β
- Type: biochemical
- RUN PARAMETERS: Control sequence, templating base C
OUTCOME MEASURE: Specificity (kpol/KD) (M⁻¹ s⁻¹)
Give just the number in M⁻¹ s⁻¹; leave the unit off.

>>> experimental_value("Nc1nc2c(ncn2[C@H]2C[C@H](O)[C@@H](COP(=O)(O)OP(=O)(O)CP(=O)(O)O)O2)c(=O)[nH]1")
"4.3e+06"
>>> experimental_value("Nc1nc2c(ncn2C2CC(O)C(COP(=O)(O)OP(=O)(O)C(F)P(=O)(O)O)O2)c(=O)[nH]1 (mixture of isomers)")
"2.4e+06"
>>> experimental_value("Nc1nc2c(ncn2[C@H]2C[C@H](O)[C@@H](COP(=O)(O)OP(=O)(O)OP(=O)(O)O)O2)c(=O)[nH]1")
"6.3e+06"

Let's switch to this compound now.
Form field Specificity (kpol/KD), entry Nc1nc2c(ncn2C2CC(O)C(COP(=O)(O)OP(=O)(O)C(Cl)P(=O)(O)O)O2)c(=O)[nH]1 (mixture of isomers) [CHCl] : 1.18e+07

====

- TARGET SYSTEM: K289M pol β (Homo sapiens, UniProt P06746, K289M)
- Construct: made in house
- RUN DESCRIPTION: Single turnover polymerase activity (rapid-quench), K289M pol β
- Format: biochemical
- RUN PARAMETERS: Control in APC sequence, templating base C
OUTCOME MEASURE: kpol (s⁻¹)
The reply should contain only the number, in s⁻¹.

>>> experimental_value("Nc1ccn([C@H]2C[C@H](O)[C@@H](COP(=O)(O)OP(=O)(O)OP(=O)(O)O)O2)c(=O)n1")
0.02
>>> experimental_value("Nc1nc2c(ncn2C2CC(O)C(COP(=O)(O)OP(=O)(O)C(F)P(=O)(O)O)O2)c(=O)[nH]1 (mixture of isomers)")
1.50
>>> experimental_value("Nc1nc2c(ncn2[C@H]2C[C@H](O)[C@@H](COP(=O)(O)OP(=O)(O)CP(=O)(O)O)O2)c(=O)[nH]1")
0.61

Nc1nc2c(ncn2C2CC(O)C(COP(=O)(O)OP(=O)(O)C(Cl)P(=O)(O)O)O2)c(=O)[nH]1 (mixture of isomers) [CHCl] tested on K289M pol β (Homo sapiens, UniProt P06746, K289M) gave kpol: 1.01

====

- TARGET SYSTEM: K289M pol β (Homo sapiens, UniProt P06746, K289M)
- Construct: made in house
- RUN DESCRIPTION: Single turnover polymerase activity (rapid-quench), K289M pol β
- Assay type: biochemical
- RUN PARAMETERS: APC sequence, templating base C
Recorded Specificity (kpol/KD), one value per entry.
Please state the figure in M⁻¹ s⁻¹; there is no need to write the unit.

>>> experimental_value("Nc1nc2c(ncn2C2CC(O)C(COP(=O)(O)OP(=O)(O)C(Cl)P(=O)(O)O)O2)c(=O)[nH]1 (mixture of isomers) [CHCl]")
400000
>>> experimental_value("Nc1nc2c(ncn2C2CC(O)C(COP(=O)(O)OP(=O)(O)C(F)P(=O)(O)O)O2)c(=O)[nH]1 (mixture of isomers) [CHF]")
560000
>>> experimental_value("Nc1nc2c(ncn2[C@H]2C[C@H](O)[C@@H](COP(=O)(O)OP(=O)(O)OP(=O)(O)O)O2)c(=O)[nH]1 [dGTP]")
690000

For reference, reported Specificity (kpol/KD) for Nc1nc2c(ncn2[C@H]2C[C@H](O)[C@@H](COP(=O)(O)OP(=O)(O)CP(=O)(O)O)O2)c(=O)[nH]1 [CH2] stands at 410000

FYI, the data here is from paper PMC7145665.
